Hello, the source for this data is PubChem BioAssay AID1250, in case you need it.

test: inhibitors of Bluetongue virus cytopathic effect, confirmation, arbovirus, BSR cells (AID 1250); conditions: BSR cells, Bluetongue virus CPE, ATP luminescence, 72 h; at 20 µM (top of the series)
CPE inhibition overview
Give the value in % but do not write % after it.

Exercise: Provide only the value of recorded CPE inhibition for CCOCCCNC(=S)NCCNc1nc2c(C)cccc2cc1C#N
Key: 7.38

Exercise: Provide only the value of recorded CPE inhibition for CCCc1cc(=O)[nH]c(SCC(=O)NC)n1
Key: -0.15

Exercise: Provide only the value of recorded CPE inhibition for CSc1nc(-c2ccc(Cl)cc2Cl)[nH]c(=O)c1C#N
Key: 24.3

Exercise: Provide only the value of recorded CPE inhibition for CCOC(=O)c1c(NC(=O)CSc2ccccc2C(=O)O)sc(C)c1C
Key: 19.3

Exercise: Provide only the value of recorded CPE inhibition for COc1cc(/C=C/C(=O)Nc2nnc(C(C)(C)C)s2)cc(OC)c1OC
Key: 11.5

Exercise: Provide only the value of recorded CPE inhibition for CCSc1nnc(NC(=O)c2ccc(C)cc2)s1
Key: 5.39

Exercise: Provide only the value of recorded CPE inhibition for O=C(CN1CCCCCC1)N/N=C/c1cccs1
Key: -0.49

Exercise: Provide only the value of recorded CPE inhibition for N#CCSc1nc(N)c(C#N)c(C2CCCCC2)c1C#N
Key: 6.59

Exercise: Provide only the value of recorded CPE inhibition for O=C(Nc1c(-c2ccccc2)nc2ccccn12)c1cccs1
Key: 20.6

Exercise: Provide only the value of recorded CPE inhibition for Cc1nc(Nc2ccccc2)sc1-c1ccccc1
Key: 3.32
